system: intracellular APEC O78 in HD11 cells; test: Intracellular survival assay (cidal SMs); conditions: O78, HD11, 6 h treatment; superscript = multiple of MIC
Marks after values point to notes of the source that are not given here.
REPORTED_ENDPOINT: SMs intracellular APEC clearance concentration

Consider the following illustrative entries.
Entry COc1cc(CNCCc2ccc(C)cc2)ccc1OCC(O)CN1CCCC1 (centres unmarked) [SM3] , SMs intracellular APEC clearance concentration reported as 100^a µM

# molecule CCCCCCCCCCCCCCCCn1c[n+](C)c2ccccc21.[Br-] [SM5] ; its SMs intracellular APEC clearance concentration = 50^c µM

Data point: CC1CCCN(CCC(=O)c2ccc(Br)cc2)C1.Cl (centres unmarked) [SM1] ; SMs intracellular APEC clearance concentration = 200^a µM

What the record says about COc1ccc(CNCc2cccc(C(F)(F)F)c2)cc1OCC(O)CN1CCCC1 (centres unmarked) [SM7] : SMs intracellular APEC clearance concentration is 50^b µM

Others:
Measured SMs intracellular APEC clearance concentration, COc1ccc(CCN(Cc2cc3c(cc2Cl)OCO3)CC2CCN(C)CC2)cc1 [SM11] : 100^a µM

* * *

I'd be grateful if you could share measured reduction of APEC load, Kidney for these entries.
test system: Rif^r APEC O78; assay: In vivo efficacy of growth inhibitors in APEC infected broiler chickens; details: vs untreated control

Some molecules with known reduction of APEC load, Kidney results, for comparison:
CC1CCCN(CCC(=O)c2ccc(Br)cc2)C1.Cl (stereo not shown) [SM1] has a reported reduction of APEC load, Kidney of -1.1 log CFU/g of tissues

The molecule identified as COc1ccc(CNCc2cccc(C(F)(F)F)c2)cc1OCC(O)CN1CCCC1 (stereo not shown) [SM7] registered its reduction of APEC load, Kidney at 3.2 log CFU/g of tissues

Recorded result, CCCCCCCCCCCCCCCC[n+]1ccn(CC#N)c1 [SM6] , reduction of APEC load, Kidney: 1.9 log CFU/g of tissues

For record CC(=O)OC(C(Br)C(=O)c1ccc([N+](=O)[O-])cc1)C(Cl)(Cl)Cl (stereo not shown) [SM10] the listed reduction of APEC load, Kidney is 2.4 log CFU/g of tissues

reduction of APEC load, Kidney reported for this molecule COc1cc(CNCCc2ccc3ccccc3c2)ccc1OCC(O)CN1CCCC1 (stereo not shown) [SM2] : 1.8 log CFU/g of tissues

// for each molecule below, give its reduction of APEC load, Kidney
1. COc1cc(CNCCc2ccc(C)cc2)ccc1OCC(O)CN1CCCC1 (stereo not shown) [SM3]
2. CCN1C(=Cc2ccc3ccccc3[n+]2CC)C=Cc2ccccc21.[Cl-] [SM9]

Ans.
-1.4 log CFU/g of tissues
-0.2 log CFU/g of tissues

* * *

tested on: APEC O115; format: cell-based, avian pathogenic Escherichia coli (APEC); conditions: APEC O115, M63 media; MIC/MBC
REPORTED_ENDPOINT: MIC (µM)
One number for each entry, in µM.

Observe how each entry below is paired with its result.
The value of MIC recorded for COc1cc(CNCCc2ccc(C)cc2)ccc1OCC(O)CN1CCCC1 (stereo not shown) when tested on APEC O115 reads 100

Given the compound CC1CCCN(CCC(=O)c2ccc(Br)cc2)C1.Cl (stereo not shown) and test system APEC O115, the measured MIC is 200

MIC for APEC O115 with input COc1ccc(CNCc2cccc(C(F)(F)F)c2)cc1OCC(O)CN1CCCC1 (stereo not shown) equals 100

Short answer on APEC O115 for CCN1C(=Cc2ccc3ccccc3[n+]2CC)C=Cc2ccccc21.[Cl-] , MIC: 25

Hey, APEC O115 data for COc1cc(CNCCc2ccc3ccccc3c2)ccc1OCC(O)CN1CCCC1 (stereo not shown) : MIC came out at 200

Hi there! I need MIC for each item below, if you can.
1. COc1ccc(CCN(Cc2cc3c(cc2Cl)OCO3)CC2CCN(C)CC2)cc1
2. CC(=O)OC(C(Br)C(=O)c1ccc([N+](=O)[O-])cc1)C(Cl)(Cl)Cl (stereo not shown)
3. CCCCCCCCCCCCCCCC[n+]1ccn(CC#N)c1
4. CCCCCCCCCCCCCCCCn1c[n+](C)c2ccccc21.[Br-]
5. CC1CCC(C(C)C)C(OC(=O)Cn2c[n+](CC(=O)OC3CC(C)CCC3C(C)C)c3ccccc32)C1.[Cl-] (stereo not shown)

Ans.
1. 200
2. 25
3. 12.5
4. 12.5
5. 25

* * *

tested on: AI-2 activity of APEC O115; assay: AI-2 bioluminescence indicator assay (V. harveyi BB170); conditions: APEC O115, 100 µM
Field: Inhibition % of AI-2 activity. Provide a value for each of the compounds that follow.
The answer should read as a number with its unit following.

Noted Inhibition % of AI-2 activity for CCc1ccccc1Nc1nc(-c2c(C)nc3ccccn23)cs1 [C8] , tested on AI-2 activity of APEC O115: 44%

Reading of Inhibition % of AI-2 activity for Cc1ccc(CN2CCN(CCCc3ccccc3)CC2)cc1 [C5] with AI-2 activity of APEC O115: 63%

Reported Inhibition % of AI-2 activity (AI-2 activity of APEC O115) for entry Cc1ccccc1N1CCN(C2CCCN(C(=O)c3ccc(F)c(Cl)c3)C2)CC1 (centres unmarked) [C2] is 52%

Known value: AI-2 activity of APEC O115 Inhibition % of AI-2 activity of the compound COCCN1CCC(CN(Cc2ccncc2)Cc2ccccc2Cl)CC1 [C1] equals 64%

Dear reader, for each entry below, please note its Inhibition % of AI-2 activity.
1. COC(=S)NN=Cc1cc(C)ccc1O [C4]
2. Fc1ccc(CN2CCCN(Cc3nc(-c4ccc(C(F)(F)F)cc4)no3)CC2)cc1 [C9]
3. NC(=O)c1ccccc1Nc1cccc(C(F)(F)F)c1 [C3]
4. O=C(CCN1CCN(c2ccccc2F)CC1)Nc1ccc(Br)cc1 [C7]

Ans.
1. 58%
2. 44%
3. 35%
4. 45%
